Origin of values: paper PMC8707700

System: SW480
Test: Antiproliferative activity, MTT assay
Format: cell-based, human
Conditions: MTT, 72 h exposure; mean ± SD; read-out: IC50, µM SW480
Outcome measure: IC50 (µM)
Answers are plain numbers, in µM.

For the compound shown here, N.N.[Cl][Pt][Cl] [cisplatin, reference compound] , give the reported IC50. 21.7

* * *

Tested on: HaCaT
Experiment: Antiproliferative activity, MTT assay
Format: cell-based, human
Settings: Homo sapiens, HaCaT; MTT, 72 h exposure; non-tumourigenic cells; mean ± SD; read-out: IC50 HaCaT
Outcome measure: pIC50
Answers are plain numbers, as −log10 of the molar value.

GET /values?readout=pIC50&item= O=C(O)c1nn(Cc2ccc(Cl)cc2Cl)c2ccccc12 5.52

* * *

For each entry below, report its IC50 value.
Tested on: SW480
Experiment: Antiproliferative activity, MTT assay
Type: cell-based, human
Conditions: Homo sapiens, SW480, 72 h, read-out: IC50, µM SW480
One number for each entry, in µM.

Before answering, review these 3 worked examples.
Smiles record	Unit annotation	Measured
O=C(NCCCCCCCCCCCCn1ccnc1)c1nn(Cc2ccc(Cl)cc2Cl)c2ccccc12	µM	8.4
O=C(NCCCCCCn1ccnc1)c1nn(Cc2ccc(Cl)cc2Cl)c2ccccc12	µM	16
O=C(NCCCCn1ccnc1)c1nn(Cc2ccc(Cl)cc2Cl)c2ccccc12	µM	28

Attention now turns to another entry.
Query (compound): O=C(NCCn1ccnc1)c1nn(Cc2ccc(Cl)cc2Cl)c2ccccc12 ; field requested: IC50 48

* * *

System: SH-SY5Y
Assay: Antiproliferative activity, MTT assay
Assay type: cell-based, human
Settings: 72 h exposure, mean ± SD
Outcome measure: IC50
State the result as a value with its unit after it.

Provide value of IC50 for this record tested with SH-SY5Y: N.N.[Cl][Pt][Cl] [cisplatin, reference compound] 9.5 µM

* * *

So I've got a bunch of compounds here, and I need their melting point values.

Example entries begin here.
Smiles record	melting point
O=C(NCCCn1ccnc1)c1nn(Cc2ccc(Cl)cc2Cl)c2ccccc12	121 to 122 °C
O=C(NCCCCCCCCCCCCn1ccnc1)c1nn(Cc2ccc(Cl)cc2Cl)c2ccccc12	86 to 88 °C
O=C(NCCCCn1ccnc1)c1nn(Cc2ccc(Cl)cc2Cl)c2ccccc12	98 to 100 °C

Next compound, please.
Quick check: melting point of O=C(NCCn1ccnc1)c1nn(Cc2ccc(Cl)cc2Cl)c2ccccc12 ? 120 to 121 °C

* * *

Tested on: HaCaT
Assay: Antiproliferative activity, MTT assay
Type: cell-based, human
Settings: Homo sapiens, HaCaT, 72 h, read-out: IC50 HaCaT
For each record, write down the corresponding pIC50.
Numbers only, as −log10 of the molar value.

These solved cases illustrate the format of a correct answer.
Compound	pIC50
O=C(NCCn1ccnc1)c1nn(Cc2ccc(Cl)cc2Cl)c2ccccc12 [Compound 9]	4.64
O=C(NCCCCn1ccnc1)c1nn(Cc2ccc(Cl)cc2Cl)c2ccccc12 [Compound 11]	4.35
O=C(NCCCCCCn1ccnc1)c1nn(Cc2ccc(Cl)cc2Cl)c2ccccc12 [Compound 12]	4.40
O=C(NCCCn1ccnc1)c1nn(Cc2ccc(Cl)cc2Cl)c2ccccc12 [Compound 10]	4.41

Could you now consider this next compound?
Please give the measured pIC50 for this compound: O=C(NCCCCCCCCn1ccnc1)c1nn(Cc2ccc(Cl)cc2Cl)c2ccccc12 [Compound 13] 4.35
